# key: entry, value: OD450 nm
target of assay: T1, human GPC3-His protein (human, UniProt P51654 25-559)
T1 construct: Bought protein; also called human GPC3 protein; not shown: His tag
measurement notes: ELISA, coated human GPC3, antibody 0.1 nM;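 further: antigen coated on 96-well plates at 1 µg/mL, antibody bound 2 h at 37 °C, detected with HRP-labeled secondary antibody and TMB substrate, acid-stopped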
// note: answer is a bare numeric in OD450

**Q:** Dear colleague, I am looking for the recorded OD450 nm of the following binder: F1.118.4 human-murine chimeric antibody (antibody, human IgG1, kappa, V domains shown) VH: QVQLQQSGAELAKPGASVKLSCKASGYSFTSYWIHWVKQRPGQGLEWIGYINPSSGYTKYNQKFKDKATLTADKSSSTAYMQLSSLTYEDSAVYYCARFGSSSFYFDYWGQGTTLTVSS VL: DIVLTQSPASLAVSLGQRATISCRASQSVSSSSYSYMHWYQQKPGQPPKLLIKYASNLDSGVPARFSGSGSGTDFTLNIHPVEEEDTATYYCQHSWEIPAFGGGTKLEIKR
**A:** 0.74

**Q:** What does the data say about its OD450 nm? Entry: F2.39.2 human-murine chimeric antibody (antibody, human IgG1, kappa, V domains shown) VH: QVQLQQSGAELVRPGASVKVSCKASGYTFTDYEMHWMKQTPVHGLEWIGANEPETGRSAYDQKFKGKATLTADKSSSTAYMELRSLTSEDSAVYYCTRFYSFAYWGQGTLVTVSA VL: DVVMTQTPLSLPVSLGDQASISCRSSQGLVHNNGNTYLHWYLQKPGQSPKLLIYKVSNRFSGVPDRFSGSGSGTDFTLKISRVEAEDLGVYFCSQNTHVPPTFGGGTKLEIKR
**A:** 1.33
